Values from patent US20050215503

Target: HIF-1 (HIF-1alpha/HIF-1beta (ARNT) heterodimer) (Homo sapiens?, UniProt Q16665;P27540 Q16665:1-826,P27540:2-789)
Sequence (Q16665 whole entry, chain 1 of 2): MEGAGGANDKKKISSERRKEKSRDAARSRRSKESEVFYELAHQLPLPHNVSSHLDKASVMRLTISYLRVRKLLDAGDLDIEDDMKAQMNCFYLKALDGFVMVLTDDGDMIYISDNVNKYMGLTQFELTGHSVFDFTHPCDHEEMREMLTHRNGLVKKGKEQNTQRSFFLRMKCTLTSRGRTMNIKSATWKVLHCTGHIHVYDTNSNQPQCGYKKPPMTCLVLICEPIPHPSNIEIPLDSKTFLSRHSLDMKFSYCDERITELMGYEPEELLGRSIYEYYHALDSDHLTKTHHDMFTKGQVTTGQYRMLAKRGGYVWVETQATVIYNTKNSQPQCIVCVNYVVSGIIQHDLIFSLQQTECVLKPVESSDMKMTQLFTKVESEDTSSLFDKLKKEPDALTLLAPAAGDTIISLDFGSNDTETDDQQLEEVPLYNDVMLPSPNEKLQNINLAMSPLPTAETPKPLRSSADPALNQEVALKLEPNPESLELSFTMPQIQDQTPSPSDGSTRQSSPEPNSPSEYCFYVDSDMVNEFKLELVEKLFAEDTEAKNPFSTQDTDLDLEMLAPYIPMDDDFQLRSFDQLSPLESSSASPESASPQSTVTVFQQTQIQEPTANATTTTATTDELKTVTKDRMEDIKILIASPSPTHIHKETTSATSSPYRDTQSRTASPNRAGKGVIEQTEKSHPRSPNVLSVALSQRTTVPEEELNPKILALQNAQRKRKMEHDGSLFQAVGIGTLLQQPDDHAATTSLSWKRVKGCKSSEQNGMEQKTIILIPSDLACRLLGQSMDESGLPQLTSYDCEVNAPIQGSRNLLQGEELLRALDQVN
Sequence (P27540 2-789, chain 2 of 2): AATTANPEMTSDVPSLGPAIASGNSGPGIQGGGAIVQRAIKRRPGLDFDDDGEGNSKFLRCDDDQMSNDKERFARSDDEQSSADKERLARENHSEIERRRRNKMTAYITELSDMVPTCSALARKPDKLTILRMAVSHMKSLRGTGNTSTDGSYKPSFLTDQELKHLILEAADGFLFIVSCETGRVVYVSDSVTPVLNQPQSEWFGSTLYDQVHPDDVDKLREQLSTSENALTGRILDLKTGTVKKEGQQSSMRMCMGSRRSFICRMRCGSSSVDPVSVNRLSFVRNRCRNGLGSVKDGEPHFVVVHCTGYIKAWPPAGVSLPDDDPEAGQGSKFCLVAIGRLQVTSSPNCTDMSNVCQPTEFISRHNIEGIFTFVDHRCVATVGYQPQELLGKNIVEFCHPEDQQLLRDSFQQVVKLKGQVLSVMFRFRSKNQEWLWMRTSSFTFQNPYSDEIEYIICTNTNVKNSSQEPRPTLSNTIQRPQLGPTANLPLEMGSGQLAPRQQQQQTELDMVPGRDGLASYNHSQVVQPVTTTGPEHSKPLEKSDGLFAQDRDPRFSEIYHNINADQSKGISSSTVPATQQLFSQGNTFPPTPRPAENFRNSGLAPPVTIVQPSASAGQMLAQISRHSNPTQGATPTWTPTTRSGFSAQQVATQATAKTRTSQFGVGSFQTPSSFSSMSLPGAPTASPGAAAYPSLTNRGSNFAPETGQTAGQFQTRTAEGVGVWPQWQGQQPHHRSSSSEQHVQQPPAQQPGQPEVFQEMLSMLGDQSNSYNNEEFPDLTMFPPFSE
Test: competition; TransAM
Details: protein: extract; tags: none (endogenous, nuclear extract)
So I've got a bunch of binders here, and I need their binding signal values.

### Prompt I would be grateful if you could share the reported binding signal for decoy 995 (dsDNA) DNA 1: CCAGCGTACGTGCCGCAGG DNA 2: CCTGCGGCACGTACGCTGG .
### Response 0.92 ratio

### Prompt I would be grateful if you could share the reported binding signal for decoy 987 (dsDNA) DNA 1: CCAGCGTACGTGCGTCAGG DNA 2: CCTGACGCACGTACGCTGG .
### Response 1.16 ratio

### Prompt I would be grateful if you could share the reported binding signal for decoy 853/854 (dsDNA) DNA 1: TTGCTTACGTGCGCCCGG DNA 2: CCGGGCGCACGTAAGCAA .
### Response 1.73 ratio
